System: Staphylococcus aureus
TEST_PROTOCOL: Antibacterial activity against Staphylococcus aureus ATCC 25923 after 24 hrs by broth microdilution method
Assay type: functional
MEASUREMENT_CONDITIONS: ATCC 25923, 24 h
Measured MIC, listed per entry for reference.
Please give a number only; it is taken to be in µg/mL.

Input: Quick check: MIC of CCO/N=C1\C(=O)C(C)=C2OC=C(CCC=C(C)C)c3ccc(C)c1c32 ?
Output: 32

Input: Same thing, different compound: CC(C)=CCCC1=COC2=C(C)C(=O)/C(=N\O)c3c(C)ccc1c32
Output: 256

Input: Item: CC(C)=CCCC1=COC2=C(C)C(=O)C(=O)c3c(C)ccc1c32
Output: 64

Input: Entry to check: NCC1O[C@H](O[C@H]2[C@@H](O)[C@H](O[C@H]3[C@H](O)[C@@H](N)C[C@@H](N)[C@@H]3O[C@H]3O[C@H](CN)[C@@H](O)[C@H](O)[C@H]3N)O[C@@H]2CO)[C@H](N)[C@@H](O)[C@@H]1O (stereo not given in full)
Output: 32

Input: And the next one, CO/N=C1\C(=O)C(C)=C2OC=C(CCC=C(C)C)c3ccc(C)c1c32 ?
Output: 32
